Target: T1, Recombinant SARS-CoV-2 N protein His tagged (SARS-CoV-2, UniProt P0DTC9 1-419)
T1 construct: also called nucleocapsid (N) protein; recombinant HIS tagged SARS-CoV-2 N protein
Experiment: BLI (Octet Red 96E), mAb on anti-mouse Fc biosensor, N protein in solution, global 1:1 fit
For each entry below, report its koff value.
Provide only the numeric value, understood in s⁻¹.

Documented koff of SCT-Pa06 (antibody, mouse IgG1, kappa, V domains shown) VH: QVTLKESGPGILQPSQTLSLTCSFSGFSLSTYGMGVGWIRQPSGKGLEWLANIWWNDDKNYNSALKSRLTISKDTSNNQLFLRISSVDTADTATYFCAQIPAYYSNSWFAYWGHGTLVTVSA VL: ENVLTQSPAIMAASPGEKVTMTCSASSSVSSGNFHWYQQKPGTSPKLWIYRTSNLASGVPARFSGSGSGTSYSLTISSMEAEDAATYYCQQWSGYPYTFGSGTKLKIKR : 0.00017

Documented koff of SCT-Pa18 (antibody, mouse IgG1, kappa, V domains shown) VH: QVQLQQPGAELVKPGASVKLSCKASGYTFTSYWMQWVKQRPGQGLEWIGEIAPSDSYTNYNQKFKGKATLTVDTSSSTAYMQLSSLTSEDSAVYYCAGGDYYGYDVKTWFAYWGQGTLVTVSA VL: DIQMTQTTSSLSASLGDRVTISCSASQDISNYLNWYQQKPDGTVKLLIYYTSSLHSGVPSRFSGSGSGTGYSLTISNLEPEDIATYYCQQYSKLPYTFGGGTKLEIKR : 0.000127

Documented koff of SCT-Pa19 (antibody, mouse IgG1, kappa, V domains shown) VH: QVQLQQPGAELVRPGSSVKLSCKASGYTFTNYWMLWVKQRPMQGLEWIGSIDPSDSETHYNQKFKDKATLTVDKSSSTAYMRLGSLTSEDSAVYYCARDSYGWYFDVWGTGTTVTVSS VL: DIVMTQSQKFMSTSVGDRVSVTCKASQNVGSNVAWYQQKSGQSPKALIYSASYRYSGVPDRFTGSGYGTDFTLTISNVQSEDLAEYFCQQYNNYPLTFGAGTKLELKR : 1.26e-05

Documented koff of SCT-Pa12 (antibody, mouse IgG1, kappa, V domains shown) VH: QVQLQQSGAELARPGASVKLSCKASGYSFTSYGISWVKQRTGQGLEWIGDIYPRSGNTDYNEKFKGKATLTADKSSSTANMQLSSLTSEDSAIYFCARSGDGYLYAMDYWGQGTSVTVSS VL: DIQMTQTTSSLSASLGDRVTISCRASQDISNYLNWYQQKPDGTVKLLIYYTSRLHSGVPSRFSGSGSGTDYSLTISNLEPEDIAPYYCQQYSKLPYTFGSGTKLEIKR : 0.000278
